Test system: OVCAR-5
testDescription: NCI tumour cell line growth inhibition, 48 h
Calls of active or inactive are those of the source. Rule as the data show it: active = GI50 up to about 1.1 µM and inactive = higher.
Reported values of GI50 for individual entries

Previously resolved entries follow.
compound	GI50
CS(=O)(=O)c1nc(Cl)c(Cl)c(C#N)c1Cl	4.39 µM (inactive)
C=C(CN(CC(=C)C(=O)c1ccccc1)C(C)(C)C)C(=O)c1ccccc1	19.6 µM (inactive)
CC1C2(C)OC(=N)C(C#N)(C(c3cccc([N+](=O)[O-])c3)O2)C1(C#N)C#N (stereo unspecified)	34.7 µM (inactive)
COc1cc2c(c(OC)c1OC)-c1ccc(SC)cc1C(O)CC2 (stereo unspecified)	14.6 µM (inactive)
Cc1cc(C2(c3cc(C)c(O)c4ncccc34)OC(=O)c3ccccc32)c2cccnc2c1O	11.3 µM (inactive)

Q: Could you share which GI50 value was measured for CCOC(=O)C1=C(C)N(Cc2ccc(Cl)cc2Cl)C2(O)C=CC(=O)C3C(=O)N(c4ccccc4)C(=O)C132 (stereo unspecified) ?
Ans: 3.17 µM (inactive)

Q: Could you share which GI50 value was measured for N#Cc1cc(C#N)c(N)nc1N ?
Ans: > 100 µM (inactive)

Q: Could you share which GI50 value was measured for COc1ccc(Cc2cc3c(cc2OCC(=O)O)OCO3)cc1 ?
Ans: > 100 µM (inactive)
